Let's look at some binders and their measured pKd.
# SYSTEM TESTED: T1, Soluble heterodimeric CD3 protein (hCD3-epsilon/hCD3-delta) with either a human Fc tag (hFcΔAdp/hFc) or a … (human, UniProt P07766 23-126; P04234 22-105)
# T1 construct: also called hCD3ε/δ; not shown: Fc tag: human (hFcΔAdp/hFc)
# T1 sequence (P07766 23-126 limits assumed, stated change not applied, chain 1 of 2): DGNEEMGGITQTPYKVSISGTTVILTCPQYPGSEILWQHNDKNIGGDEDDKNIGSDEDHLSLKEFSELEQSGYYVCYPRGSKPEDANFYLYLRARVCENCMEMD
# T1 sequence (P04234 22-105 limits assumed, stated change not applied, chain 2 of 2): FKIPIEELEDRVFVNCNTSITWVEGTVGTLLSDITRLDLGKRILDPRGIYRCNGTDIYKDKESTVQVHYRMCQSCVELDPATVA
# ASSAY SUMMARY: SPR Biacore 25C antigen-capture
pKd: −log10 of the molar value.

BINDER: H2M2778N (antibody, mouse IgG2, V domains shown, H2M: mouse IgG2 Fc, human variable regions; divalent) VH: EVQLVESGGGLVQPGRSLRLSCAASGFTFDDYSMHWVRQAPGKGLEWVSGISWNSRSIDYADSVKGRFTISRDNAKNSLYLQMNSLRAEDTALYYCVKDNSGYGRYYYYGMDVWGQGTTVSVSS VL: KIVMTQSPATLSVSPGERATLSCRASQSVSGNLAWYQQKPGQAPRLLIYGASTRATSIPARFSGSGSGTEFTLTISSLQSEDFAVYFCQHYYNWPLTFGGGTKVEIR
pKd: 10.33
//
BINDER: H2M2775N (antibody, mouse IgG2, V domains shown, H2M: mouse IgG2 Fc, human variable regions; divalent) VH: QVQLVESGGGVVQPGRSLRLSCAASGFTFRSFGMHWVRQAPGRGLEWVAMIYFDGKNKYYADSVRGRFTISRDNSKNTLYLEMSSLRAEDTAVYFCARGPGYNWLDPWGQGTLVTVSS VL: EIVMTQSPATLSVSPGERVILSCRASQSISRNLAWYQQKPGQAPRLLIYGATTRATGVPARFSGSGSGTEFTLTISSLQSEDFAVFYCQQYNNRPLTFGGGTEVEIK
pKd: 9.86
